Give measured Emax (MFI) for each item. Keep answers brief.
target: T1, endogenous cell surface human MSLN (human, UniProt Q13421 296-598); experiment: flow cytometry, NCI-H226 cells
T1 construct: whole, on cells; The cell line is named under assay; also called cell-surface MSLN on NCI-H226, OVCAR-3 and AsPC-1 cells
T1 sequence (Q13421 other isoform, or with tags, fused parts or gaps limits assumed): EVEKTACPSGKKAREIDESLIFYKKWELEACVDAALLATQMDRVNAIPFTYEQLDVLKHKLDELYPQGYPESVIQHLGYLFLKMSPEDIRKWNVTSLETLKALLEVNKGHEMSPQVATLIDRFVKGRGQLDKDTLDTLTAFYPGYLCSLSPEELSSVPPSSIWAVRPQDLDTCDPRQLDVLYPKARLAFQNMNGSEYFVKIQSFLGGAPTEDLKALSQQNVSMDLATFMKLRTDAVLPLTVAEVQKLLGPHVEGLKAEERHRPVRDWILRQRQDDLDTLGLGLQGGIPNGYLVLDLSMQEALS
Report only the number, with the unit MFI understood.

Query block: Any idea what Emax (MFI) was measured for FS22-172-003-AA/FS28-024-053 (bispecific antibody, human IgG1, kappa, L234A L235A, V domains shown, IgG1 mAb^2 with LALA) VH: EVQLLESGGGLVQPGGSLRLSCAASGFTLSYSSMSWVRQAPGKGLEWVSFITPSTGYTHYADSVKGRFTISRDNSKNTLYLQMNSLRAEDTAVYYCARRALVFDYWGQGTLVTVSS VL: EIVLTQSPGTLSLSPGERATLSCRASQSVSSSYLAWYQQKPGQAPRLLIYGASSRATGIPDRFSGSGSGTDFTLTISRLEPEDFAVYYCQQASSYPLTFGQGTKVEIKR ?
Result block: 783000

Query block: Any idea what Emax (MFI) was measured for FS22-172-003-AA/FS28-024-052 (bispecific antibody, human IgG1, kappa, L234A L235A, V domains shown, IgG1 mAb^2 with LALA) VH: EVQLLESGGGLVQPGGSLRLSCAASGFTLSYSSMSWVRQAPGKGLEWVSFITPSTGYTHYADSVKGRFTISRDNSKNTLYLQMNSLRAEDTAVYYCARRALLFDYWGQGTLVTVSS VL: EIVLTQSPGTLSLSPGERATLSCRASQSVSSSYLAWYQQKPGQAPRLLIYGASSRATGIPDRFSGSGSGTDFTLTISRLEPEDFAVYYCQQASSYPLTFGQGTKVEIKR ?
Result block: 752000

Query block: Any idea what Emax (MFI) was measured for FS22-172-003-AA/FS28-256-005 (bispecific antibody, human IgG1, kappa, L234A L235A, V domains shown, IgG1 mAb^2 with LALA) VH: EVQLLESGGGLVQPGGSLRLSCAASGFTFTETYMSWVRQAPGKGLEWVSNISPTYSTTNYADSVKGRFTISRDNSKNTLYLQMNSLRAEDTAVYYCARYNSYQGGLDYWGQGTLVTVSS VL: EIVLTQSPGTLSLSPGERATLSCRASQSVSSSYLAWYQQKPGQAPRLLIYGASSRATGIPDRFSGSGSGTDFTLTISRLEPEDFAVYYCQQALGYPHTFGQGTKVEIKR ?
Result block: 441000

Query block: Any idea what Emax (MFI) was measured for FS22-172-003-AA/FS28-024-051 (bispecific antibody, human IgG1, kappa, L234A L235A, V domains shown, IgG1 mAb^2 with LALA) VH: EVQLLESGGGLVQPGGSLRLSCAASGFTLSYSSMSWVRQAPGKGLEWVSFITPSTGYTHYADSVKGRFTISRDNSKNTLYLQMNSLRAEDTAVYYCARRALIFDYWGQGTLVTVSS VL: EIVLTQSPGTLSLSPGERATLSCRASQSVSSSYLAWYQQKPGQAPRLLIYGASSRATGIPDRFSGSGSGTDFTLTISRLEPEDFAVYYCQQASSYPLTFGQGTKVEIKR ?
Result block: 768000

Query block: Any idea what Emax (MFI) was measured for FS22-172-003-AA/FS28-256-023 (bispecific antibody, human IgG1, kappa, L234A L235A, V domains shown, IgG1 mAb^2 with LALA) VH: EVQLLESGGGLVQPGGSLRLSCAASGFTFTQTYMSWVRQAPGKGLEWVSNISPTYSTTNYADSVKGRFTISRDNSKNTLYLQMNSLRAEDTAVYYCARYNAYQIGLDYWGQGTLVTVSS VL: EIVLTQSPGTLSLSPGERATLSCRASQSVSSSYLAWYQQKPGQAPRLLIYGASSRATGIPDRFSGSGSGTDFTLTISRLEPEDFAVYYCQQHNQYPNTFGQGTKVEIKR ?
Result block: 618000

Query block: Any idea what Emax (MFI) was measured for FS22-172-003-AA/FS28-024 (bispecific antibody, human IgG1, kappa, L234A L235A, V domains shown, IgG1 mAb^2 with LALA; also called FS28-024 in CD137 mAb^2 format) VH: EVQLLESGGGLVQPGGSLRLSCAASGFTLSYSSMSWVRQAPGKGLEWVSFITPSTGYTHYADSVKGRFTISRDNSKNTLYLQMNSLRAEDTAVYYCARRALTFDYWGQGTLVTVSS VL: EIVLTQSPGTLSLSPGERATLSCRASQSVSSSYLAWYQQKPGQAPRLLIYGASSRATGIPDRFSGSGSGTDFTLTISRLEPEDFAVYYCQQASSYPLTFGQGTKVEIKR ?
Result block: 773000

Query block: Any idea what Emax (MFI) was measured for FS22-172-003-AA/FS28-024-060 (bispecific antibody, human IgG1, kappa, L234A L235A, V domains shown, IgG1 mAb^2 with LALA) VH: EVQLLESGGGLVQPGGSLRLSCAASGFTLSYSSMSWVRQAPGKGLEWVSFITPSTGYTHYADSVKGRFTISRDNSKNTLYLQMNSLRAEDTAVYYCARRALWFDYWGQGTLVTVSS VL: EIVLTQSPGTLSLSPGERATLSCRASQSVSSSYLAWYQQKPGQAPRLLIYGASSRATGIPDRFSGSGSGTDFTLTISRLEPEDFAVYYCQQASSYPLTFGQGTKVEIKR ?
Result block: 840000

Query block: Any idea what Emax (MFI) was measured for FS22-172-003-AA/FS28-256 (bispecific antibody, human IgG1, kappa, L234A L235A, V domains shown, IgG1 mAb^2 with LALA) VH: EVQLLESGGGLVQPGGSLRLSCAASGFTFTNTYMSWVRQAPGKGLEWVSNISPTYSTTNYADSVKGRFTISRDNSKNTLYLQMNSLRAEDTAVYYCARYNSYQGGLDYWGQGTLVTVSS VL: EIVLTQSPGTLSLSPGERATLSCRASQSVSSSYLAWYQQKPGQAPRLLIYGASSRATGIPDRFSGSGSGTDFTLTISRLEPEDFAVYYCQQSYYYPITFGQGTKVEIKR ?
Result block: 174000

Query block: Any idea what Emax (MFI) was measured for FS22-172-003-AA/FS28-256-026 (bispecific antibody, human IgG1, kappa, L234A L235A, V domains shown, IgG1 mAb^2 with LALA) VH: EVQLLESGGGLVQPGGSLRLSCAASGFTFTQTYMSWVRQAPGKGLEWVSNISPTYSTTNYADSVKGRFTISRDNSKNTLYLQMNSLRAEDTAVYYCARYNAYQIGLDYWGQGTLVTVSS VL: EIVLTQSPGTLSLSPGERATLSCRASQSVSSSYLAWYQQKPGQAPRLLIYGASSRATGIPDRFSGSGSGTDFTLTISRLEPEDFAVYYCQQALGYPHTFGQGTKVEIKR ?
Result block: 634000

Query block: Any idea what Emax (MFI) was measured for FS22-172-003-AA/FS28-256-027 (bispecific antibody, human IgG1, kappa, L234A L235A, V domains shown, IgG1 mAb^2 with LALA) VH: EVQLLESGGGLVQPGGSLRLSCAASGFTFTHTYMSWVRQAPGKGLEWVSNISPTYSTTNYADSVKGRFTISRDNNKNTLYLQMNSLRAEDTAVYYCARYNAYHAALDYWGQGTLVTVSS VL: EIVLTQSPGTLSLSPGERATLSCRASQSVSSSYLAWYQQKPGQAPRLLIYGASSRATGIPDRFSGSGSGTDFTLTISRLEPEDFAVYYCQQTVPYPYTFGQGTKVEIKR ?
Result block: 801000
